Data provenance is ChEMBL document CHEMBL5550206.

- System: MIA PaCa-2
- Assay text: Antiproliferative activity against human MIA PaCa-2 cells assessed as cell viability measured after 168 hrs incubation by SRB assay
- Assay type: functional, cell-based
- Study conditions: MIA PaCa-2, 168 h
pIC50: −log10 of the molar value.
This section presents compounds with their documented pIC50 values.

{"Compound": "COc1cc2c(-c3ccc(F)cc3Cl)cc(=O)oc2cc1O[C@H](C)C(=O)N1CCC[C@H](C(=O)O)C1", "Value relation sign": "<", "pIC50": 5.30}
{"Compound": "C[C@@H](Oc1cc2oc(=O)cc(-c3ccc(F)cc3Cl)c2cc1F)C(=O)N1CCCC(C#N)C1 (stereo not given in full)", "Value relation sign": "=", "pIC50": 6.52}
{"Compound": "CCN(CC)C(=O)[C@@H](C)Oc1cc2oc(=O)cc(-c3ccc(F)cc3Cl)c2cc1F", "Value relation sign": "=", "pIC50": 7.36}
{"Compound": "C[C@@H](Oc1cc(Cl)c2c(-c3ccc(F)cc3Cl)cc(=O)oc2c1)C(=O)N1CCC[C@H](C(=O)O)C1", "Value relation sign": "<", "pIC50": 5.30}
{"Compound": "C[C@@H](Oc1cc2oc(=O)cc(-c3ccc(F)cc3Cl)c2cc1F)C(=O)N1CCC1", "Value relation sign": "=", "pIC50": 6.31}
